target: Histone deacetylase 1 (Homo sapiens, UniProt Q13547); assay: Inhibition of HDAC1 (unknown origin) using compound purified by microgram-scale HPLC work-flow
Sequence (Q13547 whole entry): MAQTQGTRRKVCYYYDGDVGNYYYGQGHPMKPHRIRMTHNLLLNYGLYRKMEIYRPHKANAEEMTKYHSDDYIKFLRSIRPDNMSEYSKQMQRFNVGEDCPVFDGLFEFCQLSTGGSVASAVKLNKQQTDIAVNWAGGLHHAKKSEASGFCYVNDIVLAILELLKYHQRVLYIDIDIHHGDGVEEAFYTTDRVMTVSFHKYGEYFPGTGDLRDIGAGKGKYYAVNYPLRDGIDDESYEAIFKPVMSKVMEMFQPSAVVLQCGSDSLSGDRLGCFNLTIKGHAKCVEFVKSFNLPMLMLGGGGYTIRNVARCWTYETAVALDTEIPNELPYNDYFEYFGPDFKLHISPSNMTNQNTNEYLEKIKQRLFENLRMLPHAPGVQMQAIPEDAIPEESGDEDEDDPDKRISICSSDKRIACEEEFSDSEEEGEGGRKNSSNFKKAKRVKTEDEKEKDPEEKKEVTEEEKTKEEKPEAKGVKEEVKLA
pIC50: −log10 of the molar value.
ENDPOINT LABEL: pIC50

[
  {
    "COMPOUND": "CCC(=O)CCCCC[C@H](NC(=O)[C@H]1CC12CCN(C)CC2)c1ncc(-c2cnc(-n3cc(C)cn3)nc2)[nH]1",
    "pIC50": 6.99
  }
]

A = CCC(=O)CCCCC[C@H](NC(=O)[C@H]1CC12CCN(CC)CC2)c1ncc(-c2c(F)cccc2OC)[nH]1
B = CCC(=O)CCCCC[C@H](NC(=O)[C@H]1CC12CCN(CC)CC2)c1ncc(C2=CCC(C)N=C2OC)[nH]1 (stereo partly drawn)
Of A and B , which one carries the higher reported pIC50? Provide the label of your selected option as the answer.
B
(B: 7.85, A: 7.14)

These data points were gathered from ChEMBL document CHEMBL4680369.
